B1: tRNA (parent)
chain: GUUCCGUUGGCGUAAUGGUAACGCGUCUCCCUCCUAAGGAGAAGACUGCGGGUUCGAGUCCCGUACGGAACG

variants of: B1; assay: yeast fitness relative to wild type (ratio to wild type); higher = fitter; tRNA-Arg(CCU), competitive growth, 37 C, YPD
This sample holds only a part of the variants without activity.

{"columns": ["mutation list", "value qualifier", "yeast fitness"],
 "data": [
  ["U2C U3G G18A A65U", "≤", 0.5],
  ["G23C C24G C33G A40U A70G", "≤", 0.5],
  ["A43G G51C U54A A57C", "≤", 0.5],
  ["G25C A40G U47A A57C G63A", "≤", 0.5],
  ["A65U C66A", "=", 0.751],
  ["C5G G6A", "=", 0.659],
  ["G12A C33U C46A C55G", "≤", 0.5],
  ["G23C C49G", "=", 0.563],
  ["C11G A45G C49U C55A A70U", "≤", 0.5],
  ["U2G A20C G38A C46A", "≤", 0.5],
  ["C29G A37U", "=", 0.566],
  ["C29U A70G", "=", 0.887],
  ["G25A C34U", "=", 0.574],
  ["G9A U26C C49U", "=", 0.685],
  ["C11A U16C G18C A36G G56C", "≤", 0.5]
]}

Values compiled from the RNAGym collection of RNA variant scans (doi:10.1126/science.aae0568).
